# System: Spodoptera littoralis
# Test method notes: Antifeedant activity against newly ecdysed fifth-instar larval stage of Spodoptera littoralis in compound-pretreated lettuce leaf disks assessed as consumed area of leaf disks at 0.1 ug/cm'2 measured at 30 min intervals for 4-5 hr post-drug exposure by choice test
# Assay type: functional
Decide using FR50 alone. Strictly below 0.5: MET. Equal to or above 0.5: NOT MET.

Previously resolved entries follow.
COCCCC[C@@H]1[C@@H]2[C@@H](OC(C)=O)[C@@]3(OC2(C)C)[C@@](OC(C)=O)([C@@H](OC(C)=O)CC[C@]3(C)O)[C@@H]1OC(=O)c1ccccc1 = MET
CC(=O)O[C@H]1C[C@](C)(O)[C@]23OC(C)(C)[C@H]([C@@H](C(C)=O)[C@@H](OC(=O)c4ccccc4)[C@]2(OC(C)=O)[C@H]1OC(C)=O)[C@H]3OC(C)=O = MET

Please indicate whether the reported FR50 of `COCCCC[C@@H]1[C@@H]2[C@@H](OC(C)=O)[C@@]3(OC2(C)C)[C@](OC(C)=O)([C@@H]1OC(=O)c1ccccc1)[C@@H](O)CC[C@]3(C)O` is strictly below 0.5.
NOT MET

Please indicate whether the reported FR50 of `CC(=O)O[C@H]1C[C@](C)(O)[C@]23OC(C)(C)[C@H]([C@@H](OC(C)=O)[C@@H](OC(=O)c4ccccc4)[C@]2(OC(C)=O)C1)[C@H]3OC(C)=O` is strictly below 0.5.
NOT MET

Please indicate whether the reported FR50 of `CC(=O)O[C@H]1[C@@H]2[C@@H](OC(=O)c3cccnc3)[C@@]3(OC2(C)C)[C@@](C)([C@@H](OC(=O)c2ccccc2)CC[C@]3(C)O)[C@@H]1OC(C)=O` is strictly below 0.5.
MET

---

# Tested on: Spodoptera littoralis
# Test method notes: Antifeedant activity against newly ecdysed fifth-instar larval stage of Spodoptera littoralis in compound-pretreated lettuce leaf disks assessed as consumed area of leaf disks at 10 ug/cm'2 measured at 30 min intervals for 4-5 hr post-drug exposure by choice test
# Assay type: functional
Decide using FR50 alone. Strictly below 0.2: Criterion met. Equal to or above 0.2: Criterion not met.

Previously resolved entries follow.
CC(=O)O[C@H]1CCC(C)[C@]23OC(C)(C)[C@H]([C@@H](C(C)=O)[C@H](OC(=O)c4ccccc4)[C@]12OC(C)=O)[C@H]3OC(C)=O (some centres not stated) = Criterion met
CC(=O)O[C@H]1[C@H](OC(=O)c2ccccc2)[C@@]2(C)[C@@H](O/C=C/c3ccccc3)C[C@@H]3[C@@H](OC(C)=O)[C@]2(OC3(C)C)[C@@](C)(O)[C@H]1O = Criterion not met
COCCCC[C@@H]1[C@@H]2[C@@H](OC(C)=O)[C@@]3(OC2(C)C)[C@@](OC(C)=O)([C@@H](OC(=O)c2ccccc2)CC[C@]3(C)O)[C@@H]1OC(=O)c1ccccc1 = Criterion not met
CC1(C)O[C@]23C[C@@H]1CC[C@]2(C)CC[C@H](O)[C@@]3(C)O = Criterion not met
COCCCC[C@@H]1[C@@H]2[C@@H](OC(C)=O)[C@@]3(OC2(C)C)[C@@](OC(C)=O)([C@@H](OC(C)=O)CC[C@]3(C)O)[C@@H]1OC(=O)c1ccccc1 = Criterion met

Please indicate whether the reported FR50 of `COCCCC[C@@H]1[C@@H]2[C@@H](OC(C)=O)[C@@]3(OC2(C)C)[C@](OC(C)=O)([C@@H]1OC(=O)c1ccccc1)[C@@H](O)CC[C@]3(C)O` is strictly below 0.2.
Criterion met

Please indicate whether the reported FR50 of `CC(=O)O[C@@H]1[C@@H]2[C@@H](OC(C)=O)[C@@]3(OC2(C)C)[C@@](OC(C)=O)([C@@H](OC(=O)c2ccccc2)CC[C@]3(C)O)[C@@H]1OC(=O)c1ccccc1` is strictly below 0.2.
Criterion not met

---

# Test system: Spodoptera littoralis
# Test method notes: Antifeedant activity against newly ecdysed fifth-instar larval stage of Spodoptera littoralis in compound-pretreated lettuce leaf disks assessed as consumed area of leaf disks at 10 ug/cm'2 measured at 30 min intervals for 4-5 hr post-drug exposure by choice test
# Assay type: functional
Decide using FR50 alone. Strictly below 0.1: 1. Equal to or above 0.1: 0.

C/C=C(/C)C(=O)O[C@@H]1[C@@H]2[C@@H](OC(C)=O)[C@@]3(OC2(C)C)[C@@](OC(C)=O)([C@@H](OC(C)=O)CC[C@]3(C)O)[C@@H]1OC(=O)c1ccccc1 = 1
CC(=O)O[C@@H]1[C@H]2C[C@H](OC(=O)c3ccccc3)[C@]3(C)[C@@H](OC(=O)c4ccccc4)[C@H](C(C)=O)[C@H](O)C(C)[C@@]13OC2(C)C (stereo partly specified) = 0
CC(=O)O[C@@H]1[C@H]2[C@@H](OC(=O)c3ccccc3)[C@@H](OC(=O)c3ccccc3)[C@]3(OC(C)=O)[C@@H](OC(=O)c4ccccc4)CC[C@](C)(O)[C@@]13OC2(C)C = 0
CC(=O)O[C@H]1CC[C@](C)(O)[C@]23OC(C)(C)[C@H]([C@@H](OC(=O)c4ccccc4)[C@@H](OC(=O)c4ccccc4)[C@]12OC(C)=O)[C@H]3OC(C)=O = 0

Please indicate whether the reported FR50 of `CC(=O)O[C@@H]1[C@H]2C[C@H](OC(=O)c3ccccc3)[C@]3(C)[C@@H](OC(=O)c4ccccc4)[C@H](C(C)=O)C[C@](C)(O)[C@@]13OC2(C)C` is strictly below 0.1.
0

Please indicate whether the reported FR50 of CC(=O)O[C@@H]1[C@@H]2[C@@H](OC(C)=O)[C@]3(OC2(C)C)C(C)C[C@H](C(C)=O)[C@H](OC(C)=O)[C@@]3(OC(C)=O)[C@H]1OC(=O)c1ccccc1 (stereo partly specified) is strictly below 0.1.
1

Please indicate whether the reported FR50 of `CC(=O)O[C@@H]1[C@@H]2[C@@H](OC(C)=O)[C@@]3(OC2(C)C)[C@@](OC(C)=O)([C@@H](OC(C)=O)CC[C@]3(C)O)[C@@H]1OC(=O)c1ccccc1` is strictly below 0.1.
1

Please indicate whether the reported FR50 of `CC(=O)O[C@H]1C[C@@H]2[C@@H](OC(=O)c3cccnc3)[C@@]3(OC2(C)C)[C@@]1(C)[C@@H](OC(=O)c1ccccc1)CC[C@]3(C)O` is strictly below 0.1.
0

Please indicate whether the reported FR50 of CC(=O)O[C@H]1[C@H](OC(=O)c2ccccc2)[C@@]2(C)[C@@H](OC(=O)c3ccccc3)C[C@@H]3[C@@H](OC(C)=O)[C@]2(OC3(C)C)[C@@](C)(O)[C@H]1O [2BETA,3BETA,4BETA,TRIHYDROXYCELARBICO] is strictly below 0.1.
0

Please indicate whether the reported FR50 of `CC(=O)O[C@H]1[C@H](OC(=O)c2ccccc2)[C@@]2(C)[C@@H](OC(=O)c3ccccc3)C[C@@H]3[C@@H](O)[C@]2(OC3(C)C)[C@@](C)(O)[C@H]1O` is strictly below 0.1.
0

---

# Test system: Spodoptera littoralis
# Test method notes: Antifeedant activity against newly ecdysed fifth-instar larval stage of Spodoptera littoralis in compound-pretreated lettuce leaf disks assessed as consumed area of leaf disks at 10 ug/cm'2 measured at 30 min intervals for 4-5 hr post-drug exposure by choice test
# Format: functional
Decide using FR50 alone. Strictly below 0.4: MET. Equal to or above 0.4: NOT MET.

CC(=O)O[C@H]1[C@H](OC(=O)c2ccccc2)[C@@]2(C)[C@@H](OC(=O)c3ccccc3)C[C@H]3C[C@]2(OC3(C)C)[C@@](C)(O)[C@H]1O = NOT MET
CC(=O)O[C@H]1CCC(C)[C@]23OC(C)(C)[C@H]([C@@H](O)[C@H](OC(=O)c4ccccc4)[C@]12OC(C)=O)[C@H]3OC(C)=O (some centres not stated) = MET
C/C=C(/C)C(=O)O[C@@H]1[C@@H]2[C@@H](OC(C)=O)[C@@]3(OC2(C)C)[C@@](OC(C)=O)([C@@H](OC(=O)c2ccccc2)CC[C@]3(C)O)[C@@H]1OC(=O)c1ccccc1 = MET

Please indicate whether the reported FR50 of `CC(=O)O[C@@H]1[C@@H](O)[C@@H]2[C@@H](OC(=O)c3cccnc3)[C@@]3(OC2(C)C)[C@@]1(C)[C@@H](OC(=O)c1ccccc1)CC[C@]3(C)O` is strictly below 0.4.
NOT MET

Please indicate whether the reported FR50 of `CC(=O)O[C@@H]1[C@H]2C[C@H](OC(=O)c3ccccc3)[C@]3(C)[C@@H](OC(=O)c4ccccc4)[C@H](C(C)=O)[C@H](C(C)=O)[C@](C)(O)[C@@]13OC2(C)C` is strictly below 0.4.
NOT MET

Please indicate whether the reported FR50 of CC(=O)O[C@@H]1[C@H]2C[C@H](OC(=O)c3ccccc3)[C@]3(O)[C@@H](OC(C)=O)[C@@H](C(C)=O)CC(C)[C@@]13OC2(C)C (some centres not stated) is strictly below 0.4.
MET

Please indicate whether the reported FR50 of `CC(=O)O[C@@H]1[C@H]2C[C@H](OC(=O)c3ccccc3)[C@]3(C)[C@@H](OC(=O)c4ccccc4)[C@H](O)[C@H](C(C)=O)[C@](C)(O)[C@@]13OC2(C)C` is strictly below 0.4.
NOT MET

Please indicate whether the reported FR50 of `CC(=O)O[C@H]1C[C@](C)(O)[C@]23OC(C)(C)[C@H]([C@@H](OC(C)=O)[C@@H](OC(=O)c4ccccc4)[C@]2(OC(C)=O)C1)[C@H]3OC(C)=O` is strictly below 0.4.
MET

Please indicate whether the reported FR50 of `CC(=O)O[C@H]1CC[C@](C)(O)[C@]23OC(C)(C)[C@H](C[C@H](OC(=O)c4ccccc4)[C@]12OC(C)=O)[C@H]3OC(C)=O` is strictly below 0.4.
MET

Please indicate whether the reported FR50 of CC(=O)O[C@@H]1[C@H]2C[C@H](OC(=O)c3ccccc3)[C@]3(OC(C)=O)[C@@H](OC(C)=O)[C@@H](C(C)=O)CC(C)[C@@]13OC2(C)C (some centres not stated) is strictly below 0.4.
MET

Please indicate whether the reported FR50 of `CC(=O)O[C@@H]1[C@@H]2[C@@H](OC(C)=O)[C@@]3(OC2(C)C)[C@](O)([C@@H]1OC(=O)c1ccccc1)[C@@H](OC(C)=O)[C@@H](C(C)=O)C[C@]3(C)O` is strictly below 0.4.
MET
